system: Staphylococcus aureus; experiment: Antimicrobial activity against methicillin-resistant Staphylococcus aureus 92 by 2-fold dilution assay; type: functional
Counter-ions that a name gives are not always drawn.
Mark fulfilled for MIC under 70 µM, not fulfilled if at or over.

Example cases with answers are listed next.
{"columns": ["Compound", "Assigned class"],
 "data": [
  ["COc1cc([C@@H]2O[C@H](c3ccc4c(c3)OCO4)[C@H](C)[C@H]2C)cc(O)c1OC", "fulfilled"],
  ["COC1=CC2(C=C(OC)C1=O)C[C@@H](C)[C@H](C)Cc1cc3c(c(OC)c12)OCO3", "fulfilled"],
  ["COc1cc([C@H]2O[C@@H](c3ccc4c(c3)OCO4)[C@H](C)[C@@H]2C)cc(O)c1OC", "fulfilled"],
  ["CN[C@H](CC(C)C)C(=O)N[C@H]1C(=O)N[C@@H](CC(N)=O)C(=O)N[C@H]2C(=O)N[C@H]3C(=O)N[C@H](C(=O)N[C@H](C(=O)O)c4cc(O)cc(O)c4-c4cc3ccc4O)[C@H](O)c3ccc(c(Cl)c3)Oc3cc2cc(c3O[C@@H]2O[C@H](CO)[C@@H](O)[C@H](O)[C@H]2O[C@H]2C[C@](C)(N)[C@H](O)[C@H](C)O2)Oc2ccc(cc2Cl)[C@H]1O [VANCOMYCIN HYDROCHLORIDE]", "fulfilled"]
]}

Kindly consider the entry below.
Determine whether this compound shows MIC lower than 70 µM (ties excluded): COc1cc([C@@H]2O[C@H](c3cc(O)c(OC)c(OC)c3)[C@@H](C)[C@@H]2C)ccc1O not fulfilled
